- experiment-summary: Half life in simulated gastric fluid at 20 uM by LC-MS/MS analysis
- Assay type: ADME
measured-endpoint: half-life at 20 µM

GET /values?readout=half-life at 20 µM&item= "CC(=O)NCCCC[C@H](NC(=O)[C@@](C)(NC(=O)[C@H](Cc1ccc2ccccc2c1)NC(=O)[C@H](Cc1ccc(OCCN)cc1)NC(=O)[C@@H]1CSCC[C@H](NC(C)=O)C(=O)N[C@@H](CCC(N)=O)C(=O)N[C@@H]([C@@H](C)O)C(=O)N[C@@H](Cc2c[nH]c3ccccc23)C(=O)N[C@@H](CCC(N)=O)C(=O)N1)C(C)C)C(=O)N[C@@H](CC(N)=O)C(=O)NCC(N)=O"
1 to 2 h

----------
- experiment-summary: Half life in simulated intestinal fluid at 20 uM by LC-MS/MS analysis
- Assay type: ADME
*1 amine or outer side, *2 acyl side, *3 side chain or, on linkers, in order; H or OH if unused. Where a SMILES comes first, the peptide text is derived from it. Bridges are numbered along the chain shown (N, C = ends). [ ]: non-standard residue; d: D form. Abu(4-yl) = O=C([C@H](CC[*:3])N[*:1])[*:2]; 2Nal = N[C@@H](Cc1ccc2ccccc2c1)C(=O)O; AEF = NCCOc1ccc(C[C@H](N)C(=O)O)cc1; αMeL = CC(C)C[C@](C)(N)C(=O)O
measured-endpoint: half-life at 20 µM

Below are worked cases with known answers.
CC(=O)NCCCC[C@H](NC(=O)[C@](C)(CCCCN)NC(=O)[C@H](Cc1ccc2ccccc2c1)NC(=O)[C@H](Cc1c(C)cc(O)cc1C)NC(=O)[C@@H]1CSCC[C@H](NC(C)=O)C(=O)N[C@@H](CCC(N)=O)C(=O)N[C@@H]([C@@H](C)O)C(=O)N[C@@H](Cc2c[nH]c3ccccc23)C(=O)N[C@@H](CCC(N)=O)C(=O)N1)C(=O)N[C@@H](CC(N)=O)C(=O)NCC(N)=O :: > 360 min
CC(=O)NCCCC[C@H](NC(=O)[C@](C)(CC(C)C)NC(=O)[C@H](Cc1ccc2ccccc2c1)NC(=O)[C@H](Cc1ccc(OCCN)cc1)NC(=O)[C@@H]1CSCC[C@H](NC(C)=O)C(=O)N[C@@H](CCC(N)=O)C(=O)N[C@@H]([C@@H](C)O)C(=O)N[C@@H](Cc2c[nH]c3ccccc23)C(=O)N[C@@H](CCC(N)=O)C(=O)N1)C(=O)N[C@@H](CC(N)=O)C(=O)N[C@@H](CC(N)=O)C(N)=O (Ac-[Abu(4-yl)]QTWQC[AEF][2Nal][αMeL]K(Ac)NN-NH2; thioether 1-6) :: 120 to 180 min
CC(=O)N[C@H]1CCSC[C@@H](C(=O)N[C@@H](Cc2ccc(O)cc2)C(=O)N[C@@H](Cc2ccc3ccccc3c2)C(=O)N[C@@](C)(CC(C)C)C(=O)N[C@@H](CCC(=O)O)C(=O)N[C@@H](CC(N)=O)C(=O)NCC(N)=O)NC(=O)[C@H](CCC(N)=O)NC(=O)[C@H](Cc2c[nH]c3ccccc23)NC(=O)[C@H]([C@@H](C)O)NC(=O)[C@H](CCC(N)=O)NC1=O :: < 60 min
CC(=O)N[C@H]1CCSC[C@@H](C(=O)N[C@@H](Cc2ccc(OCCN)cc2)C(=O)N[C@@H](Cc2ccc3ccccc3c2)C(=O)NC2(C(=O)N[C@@H](CCC(=O)O)C(=O)N[C@@H](CC(N)=O)C(=O)N[C@@H](CC(N)=O)C(N)=O)CCCC2)NC(=O)[C@H](CCC(N)=O)NC(=O)[C@H](Cc2c[nH]c3ccccc23)NC(=O)[C@H]([C@@H](C)O)NC(=O)[C@H](CCC(N)=O)NC1=O :: 120 to 180 min

Please find the next molecule below.
Using the record for "CC(=O)N[C@H]1CCSC[C@@H](C(=O)N[C@@H](Cc2ccc(OCCN)cc2)C(=O)N[C@@H](Cc2c[nH]c3ccccc23)C(=O)N[C@@H](CCCN)C(=O)N[C@@H](CN)C(=O)N[C@@H](CC(N)=O)C(=O)NCC(N)=O)NC(=O)[C@H](CCC(N)=O)NC(=O)[C@H](Cc2c[nH]c3ccccc23)NC(=O)[C@H]([C@@H](C)O)NC(=O)[C@H](CCC(N)=O)NC1=O" , report its half-life at 20 µM.
< 60 min

The reported numbers originate from ChEMBL document CHEMBL4417631.
